Give measured Plate 1-duplicate (% inhibition) for each item. Keep answers brief.
assay.system: human AspH (His6-AspH315–758) (Homo sapiens)
Construct: N-Terminally His6-tagged human AspH315–758 (His6-AspH315–758) was produced in Escherichia coli BL21 (DE3) cells; made in house; host or cells: Escherichia coli BL21 (DE3), pET-28a(+) vector
Sequence (Q12797 315-758): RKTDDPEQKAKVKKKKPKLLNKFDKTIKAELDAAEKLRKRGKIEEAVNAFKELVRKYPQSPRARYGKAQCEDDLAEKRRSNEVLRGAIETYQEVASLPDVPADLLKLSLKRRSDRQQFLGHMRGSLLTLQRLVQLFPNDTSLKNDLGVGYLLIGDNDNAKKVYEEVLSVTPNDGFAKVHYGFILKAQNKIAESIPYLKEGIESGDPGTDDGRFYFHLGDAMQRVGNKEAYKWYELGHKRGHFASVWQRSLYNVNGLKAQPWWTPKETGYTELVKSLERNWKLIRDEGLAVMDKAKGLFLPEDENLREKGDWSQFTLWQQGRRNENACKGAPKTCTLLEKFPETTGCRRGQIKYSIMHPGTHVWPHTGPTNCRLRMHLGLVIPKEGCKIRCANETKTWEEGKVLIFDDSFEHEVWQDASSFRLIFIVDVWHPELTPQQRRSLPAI
measurement.description: SPE-MS AspH inhibition assay (hFX-CP101-119 substrate hydroxylation)
Assay type: biochemical
test.settings: AspH-inhibitor screening, Plate 1-duplicate
Structures can show the parent of a compound that is named as a salt.
Answers are plain numbers, in %.

Guide cases for Plate 1-duplicate (% inhibition), answers given:
>  <molecule>
CCn1c(C(=O)N(C2CC2)C2CC2)cc2c3c(ncn3C)c(Nc3cc(C)n(C)n3)nc21

>  <val>
-14.91

$$$$
>  <molecule>
C[C@@H](C(=O)O)c1ccc(-c2ccccc2)c(F)c1 [(R)-Flurbiprofen (Tarenflurbil)]

>  <val>
16.18

$$$$
>  <molecule>
O=C(c1ccc(F)c(F)c1Nc1ccc(I)cc1F)N1CC(O)([C@@H]2CCCCN2)C1

>  <val>
-8.08

$$$$
>  <molecule>
COc1cc(Nc2ncc3c(n2)-c2ccc(Cl)cc2C(c2c(F)cccc2OC)=NC3)ccc1C(=O)O

>  <val>
7.11

$$$$
>  <molecule>
Cc1cc(C(C)Nc2ccccc2)c2nc(N3CCOCC3)cc(=O)n2c1 (stereo not shown)

>  <val>
0.18

$$$$

Give measured Plate 1-duplicate (% inhibition) for every item shown.
1. COCC1(CO)C(=O)C2CCN1CC2 (stereo not shown)
2. Cn1cc(CNCC2CCN(c3ncc(C(=O)NO)cn3)CC2)c2ccccc21
3. O=C(O)CCCc1ccc(N(CCCl)CCCl)cc1
4. CCC1=C[C@@H]2CN(C1)Cc1c([nH]c3ccccc13)[C@@](C(=O)OC)(c1cc3c(cc1OC)N(C)[C@H]1[C@@](O)(C(=O)OC)[C@H](OC(C)=O)[C@]4(CC)C=CCN5CC[C@]31[C@@H]54)C2 [Vinorelbine tartrate]
5. CCN1CCN(c2ccc(Nc3cc(N(C)C(=O)Nc4c(Cl)c(OC)cc(OC)c4Cl)ncn3)cc2)CC1
6. CN(C)C/C=C/C(=O)Nc1cc2c(Nc3ccc(F)c(Cl)c3)ncnc2cc1O[C@H]1CCOC1
7. NS(=O)(=O)OC[C@@H]1C[C@@H](n2ccc3c(N[C@H]4CCc5ccccc54)ncnc32)C[C@@H]1O

1. 3.39
2. -6.18
3. 1.52
4. 36.10
5. -20.49
6. -42.32
7. -0.45
